The measured values listed here are drawn from PubChem BioAssay (NCI).

# Test system: SK-MEL-5 melanoma
# assayOverview: NCI tumour cell line growth inhibition, 48 h; in the data active = GI50 below about 0.43 µM; inactive = the rest
Possible outcomes: yes (1) = active, no (0) = inactive

{"columns": ["compound", "assignedCategory"],
 "data": [
  ["CN1CCN(CCCOc2cc(O)c3c(=O)cc(-c4ccccc4)oc3c2)CC1", "no (0)"],
  ["CN(C)CCCNc1nc2ccccc2c2[nH]c3ccccc3c12", "no (0)"],
  ["O=C(/C=C/C12c3ccccc3C(c3ccccc31)C1C(=O)NC(=O)C12)c1ccccc1 (configuration not stated)", "no (0)"],
  ["CC[PH+](CC)CC.[Cl][Au]", "no (0)"],
  ["C=C(C)[C@@H]1CC[C@]2(C(=O)NS(=O)(=O)c3ccccc3)CC[C@]3(C)[C@H](CC[C@@H]4[C@@]5(C)CC[C@H](OC(=O)NS(=O)(=O)c6ccccc6)C(C)(C)[C@@H]5CC[C@]43C)[C@@H]12", "no (0)"],
  ["COC(=O)N[C@H]1CCc2c(Cl)c(OC)c(OC)c(OC)c2-c2ccc(SC)c(=O)cc21", "yes (1)"],
  ["O=c1[nH]c(=O)n(C2CC(O)C(CO)O2)cc1C(F)(F)F (configuration not stated)", "yes (1)"],
  ["CC[C@H](C)[C@H](NC(=O)c1cccn1C)C(=O)N(C)[C@H](C[C@@H](OC(C)=O)c1nc(C(=O)N[C@@H](Cc2ccccc2)C[C@H](C)C(=O)OC)cs1)C(C)C", "yes (1)"],
  ["C[N+](C)=c1ccc2nc3c(cc(NCCCNc4cc5oc6cc(=[N+](C)C)ccc-6nc5c5ccccc45)c4ccccc43)oc-2c1", "no (0)"],
  ["COc1cc(NCCCCCN=C(N)NC(N)=NC(C)C)c2ncccc2c1", "no (0)"],
  ["CCC1=C(CC2NCCc3ccccc32)CC2c3cc(OC)c(OC)cc3CCN2C1 (configuration not stated)", "no (0)"],
  ["O=C1N=C(Nc2nc(-c3csc(NC4=NC(=O)/C(=C\\c5ccccc5)S4)n3)cs2)S/C1=C/c1ccccc1", "no (0)"]
]}
